# SYSTEM UNDER TEST: α1d-AR (Homo sapiens, UniProt P25100)
# Sequence (P25100 whole entry): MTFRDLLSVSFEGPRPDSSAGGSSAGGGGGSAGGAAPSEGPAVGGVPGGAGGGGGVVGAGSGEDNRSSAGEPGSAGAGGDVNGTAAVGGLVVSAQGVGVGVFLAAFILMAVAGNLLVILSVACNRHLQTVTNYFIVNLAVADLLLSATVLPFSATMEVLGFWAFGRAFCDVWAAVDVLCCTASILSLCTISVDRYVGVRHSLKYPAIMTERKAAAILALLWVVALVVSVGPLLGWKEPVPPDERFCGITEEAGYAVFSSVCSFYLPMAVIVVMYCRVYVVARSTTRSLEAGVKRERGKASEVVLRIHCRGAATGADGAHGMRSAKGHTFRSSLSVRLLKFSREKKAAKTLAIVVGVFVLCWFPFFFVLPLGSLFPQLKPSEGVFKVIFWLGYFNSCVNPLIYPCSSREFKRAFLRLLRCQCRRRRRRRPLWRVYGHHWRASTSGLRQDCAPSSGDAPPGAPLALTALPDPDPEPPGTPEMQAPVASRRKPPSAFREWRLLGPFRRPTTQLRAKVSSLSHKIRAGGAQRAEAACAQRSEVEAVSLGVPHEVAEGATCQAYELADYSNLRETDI
QUANTITY MEASURED: IC50 (nM)

1. Cc1ccc(Oc2ncccc2C(=O)NCCCN2CCN(c3ccccc3OC(C)C)CC2)cc1
43
2. Cc1ccc(Oc2ncccc2C(=O)NC[C@H](O)CN2CCN(c3ccccc3OC(C)C)CC2)cc1
50
3. CC(C)Oc1ccccc1N1CCN(CC(O)CNC(=O)c2cccnc2Nc2ccccc2)CC1 (stereo not drawn)
25
4. CC(C)Oc1ccccc1N1CCN(CC(=O)CNC(=O)c2cccnc2Oc2ccccc2)CC1
546
5. CC(C)Oc1ccccc1N1CCN(CC(O)CNC(=O)c2cccnc2Oc2ccc(Cl)c(Cl)c2)CC1 (stereo not drawn)
56
6. CCOc1ccccc1N1CCN(CC(O)CNC(=O)c2cccnc2Oc2ccccc2)CC1 (stereo not drawn)
206
7. CC(C)Oc1ccccc1N1CCN(CC(O)CNC(=O)c2cccnc2Oc2cccc(Cl)c2)CC1 (stereo not drawn)
180
8. CC(C)Oc1ccccc1N1CCN(CC(O)CNC(=O)c2cccnc2Sc2ccc(Cl)cc2)CC1 (stereo not drawn)
299
9. COc1ccccc1N1CCN(CC(O)CNC(=O)c2cccnc2Oc2ccccc2)CC1 (stereo not drawn)
147
10. CC(C)Oc1ccccc1N1CCN(C[C@@H](O)CNC(=O)c2cccnc2Oc2ccccc2)CC1
81
11. CC(C)Oc1ccccc1N1CCN(CC(O)CNC(=O)c2cccnc2Oc2cccc(N(C)C)c2)CC1 (stereo not drawn)
56
12. Cc1ccccc1Oc1ncccc1C(=O)NCC(O)CN1CCN(c2ccccc2OC(C)C)CC1 (stereo not drawn)
1.7
13. Cc1ccc(Oc2ncccc2C(=O)NC[C@@H](O)CN2CCN(c3ccccc3OC(C)C)CC2)cc1
969
14. CC(C)Oc1ccccc1N1CCN(CCCNC(=O)c2cccnc2Oc2ccccc2)CC1
40
15. CC(C)Oc1ccccc1N1CCN(CC(O)CNC(=O)c2cccnc2Oc2ccc(C(C)(C)C)cc2)CC1 (stereo not drawn)
78
